// data source = patent US8759537B2

Target: UniProt O14684
Sequence (O14684 whole entry): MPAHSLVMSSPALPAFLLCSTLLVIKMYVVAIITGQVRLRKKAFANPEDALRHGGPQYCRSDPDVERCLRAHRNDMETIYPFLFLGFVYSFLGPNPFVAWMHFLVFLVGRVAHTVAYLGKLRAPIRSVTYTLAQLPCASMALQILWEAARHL
Assay: A549 cell-based assay (PGE2 formation, IL-1β stimulated, 50% human serum)
Settings: A549 cells, IL-1β 5 ng/ml, read-out: mPGES-1 inhibitory effect in the cell assay, IC50
pIC50: −log10 of the molar value.
Class condition met: pIC50 at least 8. Class condition not met: pIC50 below 8.

COMPOUND: Cn1c(Nc2c(F)ccc(CNC(=O)C(C)(C)C)c2F)nc2cc(C(=O)N[C@H]3CC[C@H](C(F)(F)F)CC3)c(F)cc21 [Example 10]
MEASURED_ON: UniProt O14684
ASSIGNED_LABEL: condition met
--
COMPOUND: Cn1c(Nc2c(Cl)ccc(CNC(=O)C3(C(F)(F)F)CC3)c2Cl)nc2cc(C(=O)Nc3ccc(F)c(Cl)c3)c(OCC(F)F)cc21 [Example 174]
MEASURED_ON: UniProt O14684
ASSIGNED_LABEL: condition met
--
COMPOUND: Cn1c(Nc2c(Cl)ccc(CNC(=O)C(C)(C)C)c2Cl)nc2cc(C(=O)NC3CCC(F)(F)CC3)c(OCC(F)F)cc21 [Example 64]
MEASURED_ON: UniProt O14684
ASSIGNED_LABEL: condition met
--
COMPOUND: Cn1c(Nc2c(Cl)ccc(CNC(=O)C(C)(C)C)c2Cl)nc2cc(C(=O)Nc3cccc(Cl)c3)c(OCC(F)F)cc21 [Example 30]
MEASURED_ON: UniProt O14684
ASSIGNED_LABEL: condition met
--
COMPOUND: Cn1c(Nc2c(Cl)ccc(CNC(=O)C3(C)CCCO3)c2Cl)nc2cc(C(=O)Nc3ccc(F)c(Cl)c3)c(OCC(F)F)cc21 (stereo not shown) [Example 170]
MEASURED_ON: UniProt O14684
ASSIGNED_LABEL: condition met
--
COMPOUND: Cn1c(Nc2c(Cl)ccc(CNC(=O)C(C)(C)C)c2Cl)nc2cc(C(=O)N[C@H]3CC[C@H](C(F)(F)F)CC3)c(F)cc21 [Example 3]
MEASURED_ON: UniProt O14684
ASSIGNED_LABEL: condition met
--
COMPOUND: Cn1c(Nc2c(Cl)ccc(CNC(=O)C3(C#N)CC3)c2Cl)nc2cc(C(=O)NCC(F)(F)F)c(OCC(F)F)cc21 [Example 113]
MEASURED_ON: UniProt O14684
ASSIGNED_LABEL: condition not met
--
COMPOUND: Cn1c(Nc2c(Cl)ccc(CNC(=O)CC3CC3)c2Cl)nc2cc(C(=O)Nc3ccc(F)c(Cl)c3)c(OCC(F)F)cc21 [Example 144]
MEASURED_ON: UniProt O14684
ASSIGNED_LABEL: condition met
--
COMPOUND: Cn1c(Nc2c(F)ccc(CNC(=O)C(C)(C)C)c2F)nc2cc(C(=O)Nc3ccc(Br)cc3)c(F)cc21 [Example 9]
MEASURED_ON: UniProt O14684
ASSIGNED_LABEL: condition not met
--
COMPOUND: Cn1c(Nc2c(Cl)ccc(CNC(=O)C(C)(C)C)c2Cl)nc2cc(C(=O)Nc3ccc(C(F)(F)F)nc3)c(OCC(F)F)cc21 [Example 47]
MEASURED_ON: UniProt O14684
ASSIGNED_LABEL: condition met
